Target: BLM642-1290 R979/982A (UniProt P54132 642-1290, R979A;R982A)
Sequence (P54132 642-1290 R979A/R982A): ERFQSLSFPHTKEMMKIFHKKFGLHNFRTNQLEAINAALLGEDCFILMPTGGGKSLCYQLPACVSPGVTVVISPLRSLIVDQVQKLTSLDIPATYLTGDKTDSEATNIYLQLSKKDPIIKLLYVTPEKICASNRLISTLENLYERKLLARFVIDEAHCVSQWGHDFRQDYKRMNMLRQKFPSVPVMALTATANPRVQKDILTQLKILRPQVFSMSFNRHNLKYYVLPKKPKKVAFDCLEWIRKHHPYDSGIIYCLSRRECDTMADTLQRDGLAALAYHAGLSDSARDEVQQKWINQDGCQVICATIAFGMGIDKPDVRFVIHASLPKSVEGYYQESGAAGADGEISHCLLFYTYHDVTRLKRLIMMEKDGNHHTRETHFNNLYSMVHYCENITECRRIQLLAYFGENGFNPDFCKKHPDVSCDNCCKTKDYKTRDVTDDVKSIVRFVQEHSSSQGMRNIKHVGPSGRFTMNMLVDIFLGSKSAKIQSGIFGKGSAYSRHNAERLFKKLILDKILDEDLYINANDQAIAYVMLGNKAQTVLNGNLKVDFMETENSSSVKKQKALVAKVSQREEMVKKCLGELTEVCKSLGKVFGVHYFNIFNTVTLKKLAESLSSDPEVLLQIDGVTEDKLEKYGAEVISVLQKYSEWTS
Assay: fluorescence anisotropy
pKd: −log10 of the molar value.
QUANTITY_MEASURED: pKd

> print(dat)
                                     binder  quantity.measured  result.number
1  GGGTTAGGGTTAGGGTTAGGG (ssDNA) [oligonucleotide D (21-mer)]                pKd           8.88

Where do the numbers come from? From paper PMC2094072.
